Test system: CRL-7250
Assay: Cytotoxic Profiling of Annotated Libraries Using Quantitative High-Throughput Screening (AID 1296008); further: on the % scale 0 is the no-effect control and ±100 the full control effect; nearly all actives have a fitted effect of over 60% in size
Conditions: Five cell lines viability, CellTiter-Glo ATP luminescence, 48-72 h; hits give low values
Results filed as inconclusive are left out. Activity calls are given as the source filed them. The call rests on the fitted dose curve; in most records, active means well fitted inhibition curve with a large enough effect; inconclusive means small, poorly fitted or top-dose-only effect; inactive means flat fitted curve, though single readings scatter.
Recorded endpoint: max response

| Molecule | Recorded endpoint | Result |
| --- | --- | --- |
| COC1CC(O[C@H]2CC[C@@]3(C)C(=CC[C@]4(O)C3[C@H](O)[C@@H](O)[C@]3(C)[C@@H]([C@H](C)O)CC[C@@]34O)C2)OC(C)C1OC1CC(OC)C(OC2CC(OC)C(OC3OC(C)C(OC4OC(CO)C(O)C(O)C4O)C(OC)C3O)C(C)O2)C(C)O1 (stereo partly drawn) | max response | -21.7% (inactive) |
| Cc1ncc(NC(=O)c2ccc(CN3CCN(C)CC3)c(C(F)(F)F)c2)cc1Nc1nccc(-c2cccnc2)n1 | max response | -2.29% (inactive) |
| COC(=O)c1ccccc1O[C@@H]1O[C@H](CO[C@@H]2OC[C@@H](O)[C@H](O)[C@H]2O)[C@@H](O)[C@H](O)[C@H]1O | max response | 0.973% (inactive) |
